- Tested on: Human gammaherpesvirus 4
- EXPERIMENT_DESCRIPTION: Inhibition of TPA-induced Epstein-Barr virus early antigen activation in Raji cells at 3.2 nmol relative to control; values are per cent of control
OBSERVATION_TYPE: level, % of control (%)

COMPOUND: Cc1nc2cc(/N=C3/SCC(=O)N3c3ccccc3)ccc2n1Cc1ccccc1
MEASURED: 82.5
--
COMPOUND: Cc1nc2cc([N+](=O)[O-])ccc2[nH]1
MEASURED: 88
--
COMPOUND: Cc1nc2cc(/N=C\c3c[nH]c4ccccc34)ccc2[nH]1
MEASURED: 86.1
--
COMPOUND: Cc1nc2cc(/N=C3/SCC(=O)N3C)ccc2n1Cc1ccccc1
MEASURED: 83.4
--
COMPOUND: Cc1nc2cc(NC(=S)NC(=O)c3ccccc3)ccc2n1Cc1ccccc1
MEASURED: 82
--
COMPOUND: Cc1nc2cc(N3C(=O)CSC3c3ccc4c(c3)OCO4)ccc2[nH]1 (configuration not stated)
MEASURED: 88.4
--
COMPOUND: Cc1ccc(/C=N\c2ccc3[nH]c(C)nc3c2)cc1
MEASURED: 89.1
--
COMPOUND: Cc1nc2ccccc2[nH]1
MEASURED: 88.3
--
COMPOUND: Cc1nc2cc(/N=C\c3ccc4c(c3)OCO4)ccc2[nH]1
MEASURED: 85.4
--
COMPOUND: Cc1nc2cc(N3C(=O)CSC3c3ccc(C)o3)ccc2[nH]1 (configuration not stated)
MEASURED: 87.7
--
COMPOUND: Cc1nc2cc(N3C(=O)CSC3c3cccs3)ccc2[nH]1 (configuration not stated)
MEASURED: 88.9
--
COMPOUND: COc1ccc(NC(=S)Nc2ccc3c(c2)nc(C)n3Cc2ccccc2)cc1
MEASURED: 78.3
--
COMPOUND: Cc1nc2cc(/N=C\c3cccc4ccccc34)ccc2[nH]1
MEASURED: 89.6
--
COMPOUND: CNC(=S)Nc1ccc2c(c1)nc(C)n2Cc1ccccc1
MEASURED: 80
--
COMPOUND: Cc1ccc(C2SCC(=O)N2c2ccc3[nH]c(C)nc3c2)cc1 (configuration not stated)
MEASURED: 88.9
--
COMPOUND: Cc1nc2cc(/N=C3/SCC(=O)N3C(=O)c3ccccc3)ccc2n1Cc1ccccc1
MEASURED: 82.5
--
COMPOUND: Cc1nc2cc(N3C(=O)CSC3c3c[nH]c4ccccc34)ccc2[nH]1 (configuration not stated)
MEASURED: 87.1
--
COMPOUND: COc1ccc(N2C(=O)CS/C2=N/c2ccc3c(c2)nc(C)n3Cc2ccccc2)cc1
MEASURED: 78
--
COMPOUND: Cc1nc2cc([N+](=O)[O-])ccc2n1Cc1ccccc1
MEASURED: 87.4
--
COMPOUND: Cc1nc2cc(N)ccc2n1Cc1ccccc1.Cl
MEASURED: 86.3
--
COMPOUND: CCNC(=S)Nc1ccc2c(c1)nc(C)n2Cc1ccccc1
MEASURED: 81.2
--
COMPOUND: Cc1nc2cc(/N=C\c3cccs3)ccc2[nH]1
MEASURED: 89.1
--
COMPOUND: Cc1nc2cc(/N=C\c3ccc(C)o3)ccc2[nH]1
MEASURED: 86.2
--
COMPOUND: CCN1C(=O)CS/C1=N/c1ccc2c(c1)nc(C)n2Cc1ccccc1
MEASURED: 81.1
--
COMPOUND: Cc1nc2cc(NC(=S)Nc3ccccc3)ccc2n1Cc1ccccc1
MEASURED: 83.1
--
COMPOUND: Cc1nc2cc(N)ccc2[nH]1.Cl
MEASURED: 88.9
--
COMPOUND: Cc1nc2cc(N3C(=O)CSC3c3cccc4ccccc34)ccc2[nH]1 (configuration not stated)
MEASURED: 85.1

Values compiled from ChEMBL document CHEMBL1143757.
